- experimental_target: ATP-dependent translocase ABCB1 (Homo sapiens, UniProt P08183)
- Sequence (P08183 whole entry): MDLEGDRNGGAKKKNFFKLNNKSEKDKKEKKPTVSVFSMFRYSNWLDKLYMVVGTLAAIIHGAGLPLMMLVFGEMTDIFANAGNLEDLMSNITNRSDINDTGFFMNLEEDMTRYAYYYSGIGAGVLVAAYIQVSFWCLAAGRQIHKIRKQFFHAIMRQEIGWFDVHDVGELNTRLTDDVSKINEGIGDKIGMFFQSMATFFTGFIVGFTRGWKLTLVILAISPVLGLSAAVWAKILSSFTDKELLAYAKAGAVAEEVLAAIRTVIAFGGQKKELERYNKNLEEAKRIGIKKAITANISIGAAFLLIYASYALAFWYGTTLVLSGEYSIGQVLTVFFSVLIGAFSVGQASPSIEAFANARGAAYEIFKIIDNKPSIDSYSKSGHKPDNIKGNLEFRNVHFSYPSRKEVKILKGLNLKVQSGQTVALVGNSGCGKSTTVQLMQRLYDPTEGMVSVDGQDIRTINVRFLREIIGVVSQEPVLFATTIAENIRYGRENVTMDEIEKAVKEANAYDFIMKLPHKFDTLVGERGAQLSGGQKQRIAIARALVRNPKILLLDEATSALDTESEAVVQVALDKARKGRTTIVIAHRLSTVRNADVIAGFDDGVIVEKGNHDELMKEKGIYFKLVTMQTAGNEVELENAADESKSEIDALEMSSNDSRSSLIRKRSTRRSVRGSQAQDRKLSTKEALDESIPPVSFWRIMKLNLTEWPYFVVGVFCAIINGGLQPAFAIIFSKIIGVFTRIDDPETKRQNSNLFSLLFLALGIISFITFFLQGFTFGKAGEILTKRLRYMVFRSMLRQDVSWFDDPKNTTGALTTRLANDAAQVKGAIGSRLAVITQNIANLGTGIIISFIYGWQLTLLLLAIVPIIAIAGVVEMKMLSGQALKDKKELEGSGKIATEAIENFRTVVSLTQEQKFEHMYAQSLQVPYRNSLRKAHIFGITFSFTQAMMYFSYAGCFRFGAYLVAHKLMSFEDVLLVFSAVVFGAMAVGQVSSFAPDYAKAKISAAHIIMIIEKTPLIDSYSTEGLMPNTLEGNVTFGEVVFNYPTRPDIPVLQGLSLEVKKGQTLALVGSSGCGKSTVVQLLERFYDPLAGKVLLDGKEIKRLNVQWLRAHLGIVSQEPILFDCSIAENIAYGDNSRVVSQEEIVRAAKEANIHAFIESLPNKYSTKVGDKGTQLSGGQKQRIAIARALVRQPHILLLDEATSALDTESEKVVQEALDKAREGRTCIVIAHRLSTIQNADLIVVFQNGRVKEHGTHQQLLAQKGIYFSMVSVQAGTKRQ
- assay_explanation: Pgp transport inhibitory activity at 5 uM was measured by JC-1 accumulation assay method using JC-1 as substrate
- Type: functional
Give Relative JC-1 accumulation for every item shown.

Example cases with answers are listed next.
COc1ccc(-c2cc(=O)c3c(O)cc(O[C@@H]4O[C@H](CO)[C@H](O)[C@@H](O)[C@H]4O)cc3o2)cc1OCC(=O)N1CCN(Cc2ccc(OC)c(OC)c2OC)CC1    0
COc1ccc(C2CC(=O)c3c(O)cc(OCC(=O)N4CCN(Cc5cc(OC)c(OC)c(OC)c5)CC4)cc3O2)cc1O (centres undefined)    3
COc1ccc(C2CC(=O)c3c(O)cc(OCC(=O)N4CCN(Cc5ccc(OC)c(OC)c5OC)CC4)cc3O2)cc1O (centres undefined)    50

State the recorded Relative JC-1 accumulation for this entry: CCOC(=O)COc1cc(O)c2c(=O)cc(-c3ccc(OC)c(OCC(=O)N4CCN(Cc5ccccc5Cl)CC4)c3)oc2c1
13

* * *

- Test system: K562
- assay_explanation: Modulation factor: IC50(DOX alone)/IC50(DOX+modulator)
- Assay type: functional, Homo sapiens
property_measured: Modulation factor
Numbers only.

Example cases with answers are listed next.
COc1ccc(C2CC(=O)c3c(O)cc(OCC(=O)N4CCN(Cc5cc(OC)c(OC)c(OC)c5)CC4)cc3O2)cc1O (stereo not given)    2
CCOC(=O)COc1cc(O)c2c(=O)cc(-c3ccc(OC)c(OCC(=O)N4CCN(Cc5ccc(OC)c(OC)c5)CC4)c3)oc2c1    2

Quick request: Modulation factor for each listed item, please.
1. CCOC(=O)COc1cc(O)c2c(=O)cc(-c3ccc(OC)c(OCC(=O)N4CCN(Cc5ccc(OC)c(OC)c5OC)CC4)c3)oc2c1
2. CCOC(=O)COc1cc(O)c2c(=O)cc(-c3ccc(OC)c(OCC(=O)N4CCN(Cc5cc(OC)c(OC)c(OC)c5)CC4)c3)oc2c1
3. CCOC(=O)COc1cc(-c2cc(=O)c3c(O)cc(OCC(=O)N4CCN(Cc5ccc(OC)c(OC)c5OC)CC4)cc3o2)ccc1OC

1: 3; 2: 5; 3: 9

* * *

Give Relative JC-1 accumulation for every item shown.
- experimental_target: UniProt:P08183
- assay_explanation: Pgp transport inhibitory activity at 10 uM was measured by JC-1 accumulation assay method using JC-1 as substrate
- Format: functional

Quick request: Relative JC-1 accumulation for each listed item, please.
1. COc1ccc(C2CC(=O)c3c(O)cc(OCC(=O)N4CCN(Cc5ccc(OC)c(OC)c5OC)CC4)cc3O2)cc1OC(C)=O (centres undefined)
2. COc1ccc(C2CC(=O)c3c(O)cc(OCC(=O)N4CCN(Cc5ccc(OC)c(OC)c5)CC4)cc3O2)cc1O (centres undefined)
3. COc1ccc(-c2cc(=O)c3c(OCC(=O)N4CCN(Cc5ccc(OC)c(OC)c5OC)CC4)cc(OCc4ccccc4)cc3o2)cc1OCc1ccccc1
4. COc1ccc(/C=C/C(=O)c2c(O)cc(OCC(=O)N3CCN(Cc4ccc(OC)c(OC)c4OC)CC3)cc2O)cc1O
5. CCOC(=O)COc1cc(-c2cc(=O)c3c(O)cc(OCC(=O)N4CCN(Cc5ccc(Cl)cc5)CC4)cc3o2)ccc1OC
6. CCOC(=O)COc1cc(-c2cc(=O)c3c(O)cc(OCC(=O)N4CCN(Cc5ccc(OC)c(OC)c5)CC4)cc3o2)ccc1OC
7. COc1ccc(C2CC(=O)c3c(OC(=O)C(C)(C)C)cc(OCC(=O)N4CCN(Cc5ccc(OC)c(OC)c5OC)CC4)cc3O2)cc1OC(=O)C(C)(C)C (centres undefined)
8. COc1ccc(-c2cc(=O)c3c(O)cc(O[C@@H]4O[C@H](CO[C@@H]5O[C@@H](C)[C@H](O)[C@@H](O)[C@H]5O)[C@@H](O)[C@H](O)[C@H]4O)cc3o2)cc1OCC(=O)N1CCN(Cc2ccc(OC)c(OC)c2OC)CC1

91
31
56
21
23
27
75
0

Quick request: Relative JC-1 accumulation for each listed item, please.
1. COc1ccc(C2CC(=O)c3c(OC(C)=O)cc(OCC(=O)N4CCN(Cc5ccc(OC)c(OC)c5OC)CC4)cc3O2)cc1OC(C)=O (centres undefined)
2. CCOC(=O)COc1cc(-c2cc(=O)c3c(O)cc(OCC(=O)N4CCN(Cc5cc(OC)c(OC)c(OC)c5)CC4)cc3o2)ccc1OC
3. COc1ccc(-c2cc(=O)c3c(O)cc(O)cc3o2)cc1OCC(=O)N1CCN(Cc2ccc(OC)c(OC)c2OC)CC1
4. COc1ccc(-c2cc(=O)c3c(O)cc(OCC(=O)N4CCN(Cc5ccc(OC)c(OC)c5OC)CC4)cc3o2)cc1OCC(=O)N1CCN(Cc2ccc(OC)c(OC)c2OC)CC1
5. COc1ccc(C2CC(=O)c3c(O)cc(OCC(=O)N4CC[N+](C)(Cc5ccc(OC)c(OC)c5OC)CC4)cc3O2)cc1O.[I-] (centres undefined)
6. CCOC(=O)COc1cc(-c2cc(=O)c3c(O)cc(OCC(=O)N4CCN(Cc5ccc(OC)c(OC)c5OC)CC4)cc3o2)ccc1OC

[75, 24, 0, 53, 0, 73]
